Data origin: a melting point compilation (Tetko et al.; mined from patent text by program, amines drawn as free bases though some values may be those of a salt)

Here, each record is paired with measured melting point data.

Worked examples, 5 compounds total:
| COMPOUND | melting point |
| --- | --- |
| CCC(=O)c1cccc(C(N)=O)c1 | 121 to 122 °C |
| CC(C)(C)OC(=O)Nc1ccc2c(c1)OCC(=O)N2 | 200 to 203 °C |
| CCCN(CCC)C(=O)CNc1nc(-c2ccccc2)nc2c1CCCC2 | 87 to 88 °C |
| Cc1cc2c(c(-c3cccc(Cl)c3)c1)OC(CN)C2 (stereo unspecified) | 90 to 93 °C |
| CCOC(=O)C1=C(COCCn2c(C)nc(C)c2C)NC2=C(C(=O)OC2)C1c1ccccc1Cl (stereo unspecified) | 215 to 217 °C |

Which melting point reading was recorded for the compound CCOCc1nc2c(N)nc3ccccc3c2n1CCCc1cc(-c2ccccc2)no1 ?
171 to 172 °C

Which melting point reading was recorded for the compound COC(=O)c1ccc2c(c1)SCCC2NC(=O)OCc1ccccc1 (stereo unspecified) ?
128 to 130 °C

====

READOUT LABEL: melting point

Worked examples, 8 molecules total:
| MOLECULE | OBS VALUE |
| --- | --- |
| O=C(O)Cc1ccc(-n2cc(F)cn2)cc1 | 165 to 167 °C |
| O=C(O)C1(CSCc2ccccc2)Cc2ccccc2O1 (centres undefined) | 125 to 127 °C |
| O=C(O)CSc1c(-c2cc(Cl)ccc2O)c2cc(C(F)(F)F)ccc2[nH]c1=O | 235 °C |
| CCCOc1ccccc1-c1nc(NCCCO)cc(=O)[nH]1 | 148 °C |
| CSc1nc(-c2cccnc2)c(-c2ccccc2)n1C | 123 to 127 °C |
| CCOCc1nc2c(N)nc3ccc(OCc4ccccc4)cc3c2n1CCCCN(C(N)=O)c1ccccc1 | 186 to 188 °C |
| CC(C)(C)c1cc(C(=O)OCc2ccc(C(=O)OCc3ccccc3)cc2)cc(C(C)(C)C)c1O | 110 to 111 °C |
| COC(=O)c1nc(Cl)sc1-c1cccc(F)c1 | 99 to 100 °C |

Which melting point reading was recorded for the molecule CC(=O)OCCn1ccc(=O)c(O)c1Cc1ccc(C)cc1 ?
205 to 206 °C

Which melting point reading was recorded for the molecule Cc1c(NC(=O)c2ccc(OC[C@@H]3CCCO3)cc2)ccc2c1cc(CNC1CCCC1)n2C ?
189 °C

Which melting point reading was recorded for the molecule Cc1c(N2C(=O)C[C@H](O)[C@@H]2C)ccc(C#N)c1Cl ?
172 to 173 °C

Which melting point reading was recorded for the molecule CN1CCC(c2c(O)cc(O)c3c(=O)cc(Sc4ccccc4Cl)oc23)C(O)C1 (centres undefined) ?
110 °C

Which melting point reading was recorded for the molecule Cc1c(C)n2c3c(cccc13)CCc1ccccc1-2 ?
76 to 77 °C

Which melting point reading was recorded for the molecule CCOC(=O)C1=C(C)NC(c2cscn2)=NC1c1ccc(F)cc1 (centres undefined) ?
118 to 120 °C

Which melting point reading was recorded for the molecule CCOC(=O)CCC=Cc1ccc2ccccc2c1O ?
63 to 64 °C

Which melting point reading was recorded for the molecule CC(=O)Oc1ccc(C(C[N+](=O)[O-])SC(=S)N(C)C)cc1 (centres undefined) ?
116 to 118 °C

Which melting point reading was recorded for the molecule Cn1c(C(F)(F)F)cc(=O)n(-c2ccc3snc(C(Br)C#N)c3c2)c1=O (centres undefined) ?
185 to 187 °C

Which melting point reading was recorded for the molecule NC(=O)C1(N2CCCCC2)CCN(Cc2ccccc2)CC1 ?
150 to 160 °C

Which melting point reading was recorded for the molecule Cn1nc2c(N)nc3ccccc3c2c1CCCCCl ?
188 to 189 °C

====

Here, each record is paired with measured melting point data.

Worked examples, 5 molecules total:
| MOLECULE | READOUT LABEL | OBS VALUE |
| --- | --- | --- |
| O=C(CN1CCN(c2ccccc2)CC1)c1ccccc1 | melting point | 104 to 106 °C |
| COc1c(Cl)cc2c(N)nc(N3CCN(C(=O)C4CCCO4)CC3)nc2c1OC (stereo unspecified) | melting point | 192 to 193 °C |
| COc1ccc(NC(=O)C(C)(C)CCCOc2cc(C)ccc2C)cc1OC | melting point | 110 to 111 °C |
| CS(=O)(=O)Nc1ccc(C(=O)NC(=O)N2CCC(Oc3ccc(Cl)cc3)CC2)cc1 | melting point | 79 °C |
| Cc1ccc2cccc(OCc3c(Cl)ccc(S(=O)(=O)N4CCCC4C(=O)NCc4ccccc4)c3Cl)c2n1 (stereo unspecified) | melting point | 143 °C |

Which melting point reading was recorded for the molecule O=c1cc(COC2CCCCO2)occ1O (stereo unspecified) ?
94 °C

Which melting point reading was recorded for the molecule CCOC(=O)c1c(Cl)nc(CC)n1Cc1ccc2oc(-c3ccccc3NC(=O)OC(C)(C)C)c(Br)c2c1 ?
73 to 74 °C

Which melting point reading was recorded for the molecule O=c1ccn(-c2cc3[nH]c(=O)c(=O)[nH]c3cc2C(F)(F)F)cc1 ?
410 to 420 °C

Which melting point reading was recorded for the molecule CCC(=O)c1cc(-c2cccc(O)c2)cs1 ?
112 °C

Which melting point reading was recorded for the molecule N=C(OCc1ccc(Cl)cc1)N1Cc2ccccc2-c2ccccc2C1 ?
103 to 105 °C

====

READOUT LABEL: melting point

Worked examples, 3 molecules total:
| ENTRY SMILES | melting point |
| --- | --- |
| CC(C)CC(=O)c1ccc(Cl)cc1 | 39 to 40 °C |
| Nc1ccc(C(=O)N2CCC=Cc3sccc32)c(Cl)c1 | 192 to 200 °C |
| Cc1[nH]c(-c2ccccc2)c(N)c1C(=O)C(C)C | 180 to 183 °C |

Which melting point reading was recorded for the molecule Cc1cc(-c2noc(C(F)F)n2)cc(C)c1OCCCc1n[nH]c(=O)s1 ?
110 to 111 °C

Which melting point reading was recorded for the molecule O=C(Nc1cccc(C(=O)O)c1)Oc1ccccc1 ?
131 to 133 °C

Which melting point reading was recorded for the molecule Cc1cc2c3c(cc(Br)cc3c1Br)C(=O)N(O)C2=O ?
320 to 323 °C

====

READOUT LABEL: melting point

| COMPOUND | OBS VALUE |
| --- | --- |
| CCOC(=O)C1=Cc2sccc2S(=O)(=O)N1C | 87 to 89 °C |
| CCN1C(=O)C(C)(C)C(=O)N(C)c2cc(OCCCn3c(=O)c(-c4ccccc4)c(Cl)c4ccccc43)ccc21 | 122 to 128 °C |
| Cc1nn(-c2cccc(C(F)(F)F)c2)cc1C(=O)N(CC(=O)O)c1ccc(OCC(C)(C)C)c(C#N)c1 | 110 to 112 °C |
| O=S1(=O)CCc2nn(-c3ccc(Cl)cc3F)c(Cl)c2C1 | 141 to 143 °C |
| CCCCc1nc2c(N)nc3ccccc3c2n1CCCCNS(C)(=O)=O | 195 to 196 °C |

Which melting point reading was recorded for the compound CCN1CC=C(c2ccc(Nc3ncc4ccc(-c5ccccc5N(C)S(C)(=O)=O)n4n3)c(OC)c2)CC1 ?
121 to 123 °C

====

Here, each record is paired with measured melting point data.

Worked examples, 6 compounds total:
| COMPOUND | melting point |
| --- | --- |
| Cn1c(C(F)(F)F)cc(=O)n(-c2ccc3snc(C(=O)NS(N)(=O)=O)c3c2)c1=O | 221 °C |
| NS(=O)(=O)c1ccc(-c2[nH]c3ccc(F)cc3c2-c2ccccc2)cc1 | 302 to 304 °C |
| COc1c(F)cc2c(=O)c(C(=O)O)cn(-c3cc(N)c(F)cc3F)c2c1C | > 280 °C |
| O=C(O)C(=O)c1ccc(CCCOc2ccc3ccccc3c2)cc1 | 151 to 154 °C |
| COC(=O)c1ccc(Cl)c(Cn2nnn(C3CC3)c2=O)c1Cl | 99 to 100 °C |
| O=C(O)CCSSc1ccc([N+](=O)[O-])cc1 | 98 to 100 °C |

Which melting point reading was recorded for the compound COc1ccc(SC2SC(=O)NC2=O)cc1 (stereo unspecified) ?
89 to 91 °C

Which melting point reading was recorded for the compound COc1ccc(-c2cc(=O)n(C)c(=O)n2C)cc1OC ?
118 to 120 °C

Which melting point reading was recorded for the compound CCCCCCCCOc1ccc(-c2ncc(OC(=O)[C@H]3CCCO3)cn2)cc1 ?
90 °C

Which melting point reading was recorded for the compound C[C@@H]1S[C@@H](C(=O)Nc2ccc(CN3C(=O)CN(C)C3=O)cc2)Cc2cc3c(cc2C1=O)OCO3 ?
228 to 230 °C

Which melting point reading was recorded for the compound COc1cc(C(C)=NOCc2ccc3nonc3c2)ccc1F ?
65 °C

====

READOUT LABEL: melting point

Worked examples, 5 compounds total:
| COMPOUND | READOUT LABEL | OBS VALUE |
| --- | --- | --- |
| CONC(C(C)=O)c1cc(-n2c(=O)cc(C(F)(F)F)n(C)c2=O)ccc1Cl (stereo unspecified) | melting point | 160 to 161 °C |
| OCC12OC1CC(OCc1ccccc1)C2COCc1ccccc1 (stereo unspecified) | melting point | 60 to 62 °C |
| CCC1CN(Cc2ccccc2)C(=O)C(=C2SC=CS2)C1=O (stereo unspecified) | melting point | 140 to 141 °C |
| O=c1c2c(Cc3cccc(O)c3)n[nH]c2c2cccnc2n1-c1ccccc1 | melting point | 276 to 278 °C |
| OC1CCN(c2ccccc2)C12CCN(C1CC3CCCCCC3C1)CC2 (stereo unspecified) | melting point | 219 °C |

Which melting point reading was recorded for the compound Cc1ccc(-c2cn(C)cc(-c3cccc(C(F)(F)F)c3)c2=O)c(C)c1 ?
128 to 131 °C
